Recorded IRF reporter by entry
Tested on: RAW-Dual (murine macrophage reporter line)
test method notes: IRF reporter (Lucia luciferase) activity fold change vs agonist alone; higher = enhanced IRF activity
stated conditions: modulator concentration 10 µM; agonist: 3'3'-cGAMP 10 ug/mL
// response body must contain only the number

Would you please look over these solved cases?
O=C(Cn1cnc([N+](=O)[O-])n1)Nc1cc(Oc2cccc(C(F)(F)F)c2)cc([N+](=O)[O-])c1    0.902
CCC(=O)c1c(O)cc(O)cc1O    0.922
COc1ccc(NC(=O)CN(c2ccc(F)cc2)S(C)(=O)=O)c(OC)c1    0.921
CCN(CC)c1ccc(NC(=O)C(C)(C)C)cc1    0.901
CCOc1ccccc1OCCCCOc1cccc(C)c1    0.996

Asked: I am curious: what IRF reporter value has been reported for Br.O=S(=O)(c1ccc(-c2csc(Nc3ccc(Cl)cc3)n2)cc1)N1CCCC1 ?
Given back: 0.885

Asked: Reported IRF reporter for CS(=O)(=O)N(CC(=O)NCCSCc1cccc(Cl)c1)c1ccc(Cl)cc1 : what is it?
Given back: 0.904

Asked: Sample COc1ccc(C=CC(=O)Nc2sc(C(=O)OC(C)C)c(C)c2C(N)=O)cc1 — what was its IRF reporter?
Given back: 0.949

Asked: So what's the measured IRF reporter for this one? CN(CC(=O)O)c1nc2ccc(OC(F)(F)F)cc2s1
Given back: 0.892

Asked: Suppose we examine the molecule COc1ccccc1N1CCN(CC(O)COc2cccc3ccccc23)CC1 (stereo unspecified) ; what IRF reporter value has been reported?
Given back: 0.719

Asked: Quick one: IRF reporter for COCc1cc(C)nc2sc(C(=O)c3cccc([N+](=O)[O-])c3)c(N)c12 ?
Given back: 0.943
